Where do the numbers come from? From the supplement of paper PMC7877785.

- Run description: self-splicing fitness, log relative to wild type (ln ratio); higher = more splicing; Tetrahymena group I intron in knt gene, E. coli kanamycin selection, DiMSum; sequences stand for … in CUCUCU…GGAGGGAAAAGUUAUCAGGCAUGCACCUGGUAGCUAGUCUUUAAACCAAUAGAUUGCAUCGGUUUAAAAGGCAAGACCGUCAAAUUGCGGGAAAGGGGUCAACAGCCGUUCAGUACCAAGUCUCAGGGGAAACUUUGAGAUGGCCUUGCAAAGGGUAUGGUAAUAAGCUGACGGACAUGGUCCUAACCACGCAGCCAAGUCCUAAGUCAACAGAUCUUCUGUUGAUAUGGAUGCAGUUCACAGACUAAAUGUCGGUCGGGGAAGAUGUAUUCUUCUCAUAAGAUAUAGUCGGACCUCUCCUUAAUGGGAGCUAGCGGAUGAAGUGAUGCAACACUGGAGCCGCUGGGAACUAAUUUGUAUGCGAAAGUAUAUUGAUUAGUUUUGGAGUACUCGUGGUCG;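 further: selection with 25 µg/mL kanamycin versus none on LB agar overnight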
- Recorded conditions: 37 °C
Result type: self-splicing fitness (ln)

| Item sequence | Result type | Result |
| --- | --- | --- |
| UUGAAGCAAUAUUACGCAAU | self-splicing fitness (ln) | -2.02 |
| CGAGAGCAAUAUUACGGGAG | self-splicing fitness (ln) | -0.597 |
| UUCCAGCAAUAUUACGGCUG | self-splicing fitness (ln) | -2.68 |
| UCAUAGCAAUAUUACGGGAG | self-splicing fitness (ln) | -3.06 |
| GUAUAGCAAUAUUACGGCGG | self-splicing fitness (ln) | -2.1 |
| AAUGAGCAAUAUUACGCAGG | self-splicing fitness (ln) | -3.18 |

* * *

- Run description: self-splicing fitness, log relative to wild type (ln ratio); higher = more splicing; Tetrahymena group I intron in knt gene, E. coli kanamycin selection, DiMSum; sequences stand for … in CUCUCU…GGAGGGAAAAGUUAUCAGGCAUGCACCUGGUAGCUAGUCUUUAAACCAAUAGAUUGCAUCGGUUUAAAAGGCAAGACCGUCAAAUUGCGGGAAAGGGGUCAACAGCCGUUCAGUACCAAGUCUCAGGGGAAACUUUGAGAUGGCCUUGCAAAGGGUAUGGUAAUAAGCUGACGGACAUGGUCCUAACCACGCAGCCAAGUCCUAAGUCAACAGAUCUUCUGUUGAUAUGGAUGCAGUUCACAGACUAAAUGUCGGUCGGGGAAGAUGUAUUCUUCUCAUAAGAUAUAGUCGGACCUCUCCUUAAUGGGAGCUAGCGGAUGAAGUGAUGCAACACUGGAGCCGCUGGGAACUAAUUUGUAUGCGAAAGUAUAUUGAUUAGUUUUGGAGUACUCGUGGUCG
- Recorded conditions: 30 °C
Criterion: self-splicing fitness (ln) meeting or surpassing -3. Met: Satisfied. Not met: Not satisfied.

| Item sequence | Assigned category |
| --- | --- |
| AAAGAGCAAUAUUACGUGUC | Not satisfied |
| CUCCAGCAAUAUUACGUAGA | Not satisfied |
| UCGAAGCAAUAUUACGUCAU | Satisfied |
| ACUCAGCAAUAUUACGAUAU | Satisfied |
| CGUCAGCAAUAUUACGGUCU | Satisfied |
| GCCAAGCAAUAUUACGGUCC | Satisfied |
| CUGUAGCAAUAUUACGCGAC | Satisfied |

* * *

- Run description: self-splicing fitness, log relative to wild type (ln ratio); higher = more splicing; Tetrahymena group I intron in knt gene, E. coli kanamycin selection, DiMSum; sequences stand for … in CUCUCU…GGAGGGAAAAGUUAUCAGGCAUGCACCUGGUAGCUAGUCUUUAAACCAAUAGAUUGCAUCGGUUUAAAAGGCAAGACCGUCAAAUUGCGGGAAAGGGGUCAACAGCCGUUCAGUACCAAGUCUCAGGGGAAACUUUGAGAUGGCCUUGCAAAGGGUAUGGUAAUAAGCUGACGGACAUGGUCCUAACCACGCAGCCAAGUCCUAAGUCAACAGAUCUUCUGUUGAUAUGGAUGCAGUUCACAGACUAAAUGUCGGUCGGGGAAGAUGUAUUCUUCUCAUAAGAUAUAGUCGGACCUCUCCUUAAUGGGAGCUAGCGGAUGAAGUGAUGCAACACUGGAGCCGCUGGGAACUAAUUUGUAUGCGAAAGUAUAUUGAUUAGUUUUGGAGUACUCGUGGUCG
- Recorded conditions: 30 °C
Result type: self-splicing fitness (ln)

| Item sequence | Result type | Result |
| --- | --- | --- |
| GAGGAGCAAUAUUACGUAAU | self-splicing fitness (ln) | -3.87 |
| UGAGAGCAAUAUUACGGAGG | self-splicing fitness (ln) | -2.31 |
| AGCCAGCAAUAUUACGAACU | self-splicing fitness (ln) | -0.257 |

* * *

- Run description: self-splicing fitness, log relative to wild type (ln ratio); higher = more splicing; Tetrahymena group I intron in knt gene, E. coli kanamycin selection, DiMSum; sequences stand for … in CUCUCU…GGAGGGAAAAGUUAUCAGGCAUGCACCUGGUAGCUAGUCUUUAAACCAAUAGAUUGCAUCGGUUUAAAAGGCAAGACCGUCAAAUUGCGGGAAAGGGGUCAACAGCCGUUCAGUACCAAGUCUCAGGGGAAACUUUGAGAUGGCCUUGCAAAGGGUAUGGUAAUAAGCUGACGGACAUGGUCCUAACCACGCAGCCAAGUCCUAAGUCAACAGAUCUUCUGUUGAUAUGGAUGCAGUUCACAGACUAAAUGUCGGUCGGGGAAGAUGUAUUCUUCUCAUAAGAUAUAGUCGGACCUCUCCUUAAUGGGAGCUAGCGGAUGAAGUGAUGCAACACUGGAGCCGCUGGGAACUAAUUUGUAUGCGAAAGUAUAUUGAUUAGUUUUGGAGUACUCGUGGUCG
- Recorded conditions: 30 °C
Criterion: self-splicing fitness (ln) meeting or surpassing -2. Met: y. Not met: n.

| Item sequence | Assigned category |
| --- | --- |
| UAUAAGCAAUAUUACGAGAG | n |
| UAAAAGCAAUAUUACGGUGC | n |
| GAGCAGCAAUAUUACGGGGA | n |
| UUGAAGCAAUAUUACGGGAA | y |
| GCCUAGCAAUAUUACGCGCA | y |
| AUAAAGCAAUAUUACGCGGC | n |
| GGGAAGCAAUAUUACGGAAC | n |
| AGUGAGCAAUAUUACGCCGA | y |
| ACCGAGCAAUAUUACGAUUG | n |
| AUGCAGCAAUAUUACGCGCA | y |
| AUCAAGCAAUAUUACGUCCG | n |
| UACGAGCAAUAUUACGGCAG | n |
| GUUUAGCAAUAUUACGGAAC | n |
| AUGCAGCAAUAUUACGACUC | y |
| CUAAAGCAAUAUUACGCAAA | n |
| AAUUAGCAAUAUUACGCUGA | n |
| UGCCAGCAAUAUUACGAUUA | y |
| CACAAGCAAUAUUACGCGCC | n |
| GCUAAGCAAUAUUACGAGUA | y |
| UGUGAGCAAUAUUACGGUCG | y |
| GUUAAGCAAUAUUACGAGCU | y |
| GUAAAGCAAUAUUACGCAUC | y |
| GGUUAGCAAUAUUACGGCCG | y |
| GAGCAGCAAUAUUACGGGCA | y |
| AGCAAGCAAUAUUACGACUU | y |
| UAGCAGCAAUAUUACGCCCA | y |
| AGACAGCAAUAUUACGGUGG | n |
| UGGCAGCAAUAUUACGAAUA | y |
| GAGAAGCAAUAUUACGCCUG | y |
| GCACAGCAAUAUUACGCUCG | y |
| GUGCAGCAAUAUUACGAAUA | y |

* * *

- Run description: self-splicing fitness, log relative to wild type (ln ratio); higher = more splicing; Tetrahymena group I intron in knt gene, E. coli kanamycin selection, DiMSum; sequences stand for … in CUCUCU…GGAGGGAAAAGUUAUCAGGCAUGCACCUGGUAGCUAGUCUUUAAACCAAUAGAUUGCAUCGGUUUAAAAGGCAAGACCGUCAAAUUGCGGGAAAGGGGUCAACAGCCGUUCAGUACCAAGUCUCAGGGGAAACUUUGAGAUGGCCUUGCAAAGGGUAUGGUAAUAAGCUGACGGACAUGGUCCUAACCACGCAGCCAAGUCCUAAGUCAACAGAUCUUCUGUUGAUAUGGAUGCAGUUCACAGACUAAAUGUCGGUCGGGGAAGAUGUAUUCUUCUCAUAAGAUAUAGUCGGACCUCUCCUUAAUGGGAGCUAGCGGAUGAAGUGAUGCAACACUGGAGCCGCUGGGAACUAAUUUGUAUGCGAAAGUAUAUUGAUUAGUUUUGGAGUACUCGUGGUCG
- Recorded conditions: 30 °C

| Item sequence | self-splicing fitness (ln) |
| --- | --- |
| UGUAAGCAAUAUUACGUGAC | -3.47 |
| GCCCAGCAAUAUUACGCAGA | -3.37 |
| CGCUAGCAAUAUUACGAGGG | -2.59 |
| AAGCAGCAAUAUUACGAUCG | -2.29 |
| GCACAGCAAUAUUACGUGUC | -2.98 |
| ACUAAGCAAUAUUACGCGGA | -1.96 |
| AUAUAGCAAUAUUACGGGGA | -2.21 |
| GCCCAGCAAUAUUACGUAAU | -0.747 |
| GCUAAGCAAUAUUACGGACU | -1.66 |
| AUGAAGCAAUAUUACGUGGC | -3.92 |
| AAAUAGCAAUAUUACGCUGU | -3.27 |
| GCUUAGCAAUAUUACGGACU | -0.304 |
| CUUCAGCAAUAUUACGAGGC | -4.72 |
| CCCGAGCAAUAUUACGGAGU | -3.46 |
| CGUAAGCAAUAUUACGUCAG | -1.56 |
